Target: b-Raf (V600E) (Homo sapiens (Human), UniProt P15056, V600E)
Sequence (P15056 whole entry V600E): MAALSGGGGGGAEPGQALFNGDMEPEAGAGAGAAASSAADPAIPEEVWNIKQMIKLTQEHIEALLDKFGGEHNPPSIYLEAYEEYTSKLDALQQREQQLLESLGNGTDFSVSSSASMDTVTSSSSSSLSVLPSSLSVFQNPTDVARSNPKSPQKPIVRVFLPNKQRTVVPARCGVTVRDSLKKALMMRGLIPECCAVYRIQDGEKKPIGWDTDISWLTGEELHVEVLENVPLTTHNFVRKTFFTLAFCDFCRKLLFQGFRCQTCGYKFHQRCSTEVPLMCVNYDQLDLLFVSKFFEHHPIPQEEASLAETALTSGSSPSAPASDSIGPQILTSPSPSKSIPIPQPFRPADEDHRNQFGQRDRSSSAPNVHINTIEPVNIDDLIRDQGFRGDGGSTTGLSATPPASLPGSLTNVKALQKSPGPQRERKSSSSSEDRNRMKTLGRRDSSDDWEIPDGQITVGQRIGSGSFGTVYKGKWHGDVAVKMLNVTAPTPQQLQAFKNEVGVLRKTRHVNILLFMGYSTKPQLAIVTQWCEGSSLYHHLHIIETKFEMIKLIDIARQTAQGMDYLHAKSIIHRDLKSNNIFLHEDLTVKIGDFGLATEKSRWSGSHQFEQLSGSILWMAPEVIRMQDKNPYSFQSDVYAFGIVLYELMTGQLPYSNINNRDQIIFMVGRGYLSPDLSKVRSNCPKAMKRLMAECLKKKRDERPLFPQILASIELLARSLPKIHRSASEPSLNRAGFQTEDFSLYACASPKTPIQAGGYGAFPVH
Experiment: In vitro Raf activity determination (Alpha Screen, phospho-MEK), b-Raf (V600E)
Details: ATP 10 μM, 60 min pre-incubation, 3 hours reaction
pIC50: −log10 of the molar value.
RECORDED_METRIC: pIC50

// solved cases for pIC50 follow
molecule="COc1ncc(-c2cc(NC(=O)c3cccc(C(F)(F)F)c3)cnc2C)cc1C1(O)COC1 [Example 97]" assay_result=7.98
molecule="COc1ncc(-c2cc(NC(=O)c3ccnc(C(C)(C)F)c3)ccc2C)cc1C1(CF)COC1 [Example 104]" assay_result=9.38
molecule="COc1ncc(-c2cc(NC(=O)c3ccnc(C(C)(C)F)c3)ccc2C)cc1C1(O)COC1 [Example 99]" assay_result=8.57
molecule="COc1ncc(-c2cc(C(=O)Nc3ccnc(S(C)(=O)=O)c3)ccc2C)cc1C1(O)COC1 [Example 145]" assay_result=7.31
molecule="Cc1ncc(NC(=O)c2ccnc(C(C)(C)C#N)c2)cc1-c1cnc(OC2CCOCC2)c(C2(O)COC2)c1 [Example 34]" assay_result=7.69
molecule="Cc1ccc(NC(=O)c2ccnc(C(C)(C)F)c2)cc1-c1cc(C2COC2)c(=O)n(C)c1 [Example 110]" assay_result=8.00

(1) Cc1ncc(NC(=O)c2cccc(C(F)(F)F)c2)cc1-c1cc(C2(F)COC2)c(=O)n(CCCO)c1 [Example 44]
(2) Cc1ccc(NC(=O)c2ccnc(C(C)(C)C#N)c2)cc1-c1cccc(C2(C)COC2)c1 [Example 27]
# return whichever of 1 and 2 has the smaller pIC50 Write the label of whichever entry you select.
2
